Ref: patent US5919780A

Molecular target: rat brain farnesyl protein transferase (Rattus norvegicus, UniProt Q02293+Q04631)
Construct: 40-fold purified rat brain farnesyl protein transferase; from tissue; host or cells: rat brain
Test: Farnesyl Protein Transferase Inhibition (PFT/FPT inhibitory activity)
Format: biochemical
Conditions: Hepes, without 5 mM phosphate; read-out: Farnesyl Protein Transferase Inhibition Hepes IC50
MEASURED ENDPOINT: log10 IC50 (log10 of the value in µM)

> print(dat)
                         chemical.structure  measured.endpoint    val
1   CN1c2ccc(Cl)cc2N=C(NCc2cccnc2)c2ccccc21         log10 IC50   1.09
2    Clc1ccc2c(c1)N=C(NCCn1ccnc1)c1ccccc1N2         log10 IC50   0.48
3  Clc1cc2c(cc1Cl)Nc1ccccc1C(NCc1cccnc1)=N2         log10 IC50  -0.10
4    COc1ccc2c(c1)N=C(NCc1cccnc1)c1ccccc1N2         log10 IC50   1.43
5  Clc1ccc2c(c1)N=C(NCCc1cnc[nH]1)c1ccccc1N2         log10 IC50   0.38
6        c1cncc(CNC2=Nc3ccccc3Nc3ncccc32)c1         log10 IC50   1.15
7   Clc1ccc2c(c1)N=C(NCCCn1ccnc1)c1ccccc1N2         log10 IC50   0.83
8    Clc1ccc2c(c1)N=C(NCc1cccnc1)c1ccccc1O2         log10 IC50   0.94
